# Tgt: SARS-CoV-2 3CLpro (Severe acute respiratory syndrome coronavirus 2, UniProt P0DTD1)
# Assay method text: biochemical
# Type: biochemical
# Set-up: unit not given here
# Details: LOPAC1280 primary screen with protease, 5 µM compound, mean of the two replicates
Rule: mean (LOPAC_screen_w_protease) of 2 or more gives Condition met; anything lower gives Condition not met.

{"Compound": "O=C1C=CC(=O)C=C1", "Tgt": "SARS-CoV-2 3CLpro (Severe acute respiratory syndrome coronavirus 2, UniProt P0DTD1)", "Classification": "Condition met"}
{"Compound": "N.N.N.N.N.N.N.N.N.N.N.N.N.N.[Cl-].[Cl-].[Cl-].[Cl-].[Cl-].[Cl-].[O-2].[O-2].[Ru+3].[Ru+3].[Ru+4]", "Tgt": "SARS-CoV-2 3CLpro (Severe acute respiratory syndrome coronavirus 2, UniProt P0DTD1)", "Classification": "Condition not met"}
{"Compound": "COc1ccc(CCN(C)CCCC(C#N)(c2cc(OC)c(OC)c(OC)c2)C(C)C)cc1OC.Cl (racemic) [(±)-Methoxyverapamil hydrochloride]", "Tgt": "SARS-CoV-2 3CLpro (Severe acute respiratory syndrome coronavirus 2, UniProt P0DTD1)", "Classification": "Condition met"}
{"Compound": "C[N+](C)(C)CCCCCC[N+](C)(C)C.[Cl-].[Cl-] [Hexamethonium dichloride]", "Tgt": "SARS-CoV-2 3CLpro (Severe acute respiratory syndrome coronavirus 2, UniProt P0DTD1)", "Classification": "Condition not met"}
{"Compound": "CC1CCN(CC[C@H]2CCCN2S(=O)(=O)c2cccc(O)c2)CC1.Cl [SB 269970 hydrochloride]", "Tgt": "SARS-CoV-2 3CLpro (Severe acute respiratory syndrome coronavirus 2, UniProt P0DTD1)", "Classification": "Condition met"}

----------
// Replicate_1 lookup, one value per entry
# Tgt: SARS-CoV-2 3CLpro (Severe acute respiratory syndrome coronavirus 2)
# Assay method text: biochemical
# Assay type: biochemical
# Design: unit not given here
# Details: sheet LOPAC_screen_w_protease; LOPAC1280 primary screen with protease, 5 µM compound; replicate 1

{"Compound": "O=C(O)C1CN(CCCP(=O)(O)O)CCN1 (racemic) [(±)-CPP]", "Replicate_1": 5.3739}
{"Compound": "CCN(CCCl)Cc1ccccc1Br.Cl [DSP-4 hydrochloride]", "Replicate_1": 6.498}
{"Compound": "O=C(Nc1cccc(C(=O)Nc2ccc(S(=O)(=O)O)c3cc(S(=O)(=O)O)cc(S(=O)(=O)O)c23)c1)Nc1cccc(C(=O)Nc2ccc(S(=O)(=O)O)c3cc(S(=O)(=O)O)cc(S(=O)(=O)O)c23)c1 [NF 023, reference compound]", "Replicate_1": 5.845}

----------
# Tgt: SARS-CoV-2 3CLpro (Severe acute respiratory syndrome coronavirus 2, UniProt P0DTD1)
# Assay method text: biochemical
# Type: biochemical
# Details: sheet LOPAC_screen_w_protease; primary screen at 5 µM; replicate 2
Metric name: Replicate_2 (LOPAC screen with protease)

{"Molecule": "C[C@](N)(Cc1ccc(O)c(O)c1)C(=O)O", "Test value": 8.01}
{"Molecule": "O=C1c2c(O)cc(O)cc2O[C@H](c2ccc(O)c(O)c2)[C@H]1O (racemic) [(±)-Taxifolin]", "Test value": 5.799}
{"Molecule": "Br.Oc1cc2c(c(Cl)c1O)CCNCC2c1ccccc1 (racemic) [(±)-6-Chloro-PB hydrobromide]", "Test value": 68.1884}
{"Molecule": "Br.NC1CCc2cc(O)c(O)cc2C1 (centres unmarked) [6,7-ADTN hydrobromide]", "Test value": 65.0099}
{"Molecule": "Nc1ccc2c3c(cccc13)C(=O)NC2=O [4-Amino-1,8-naphthalimide]", "Test value": 4.986}
{"Molecule": "S=C(Nc1ccccc1)Nc1nccs1", "Test value": 8.4724}
{"Molecule": "CC(C)CC(N)CSSCC(N)CC(C)C.Cl.Cl [L-Leucinethiol, oxidized dihydrochloride]", "Test value": 42.1401}
{"Molecule": "CCCn1c(=O)c2[nH]c(-c3ccc(S(=O)(=O)O)cc3)nc2n(CCC)c1=O", "Test value": 8.208}

----------
Recorded mean for the following molecules
# Tgt: SARS-CoV-2 3CLpro (Severe acute respiratory syndrome coronavirus 2, UniProt P0DTD1)
# Assay method text: biochemical
# Format: biochemical
# Set-up: unit not given here
# Details: sheet LOPAC_screen_w_protease; LOPAC1280 at 5 µM; mean of two replicates
Metric name: mean

{"Molecule": "Br.CCSC(=N)N [S-Ethylisothiourea hydrobromide]", "Metric name": "mean", "Test value": 1.099}
{"Molecule": "NC(=O)c1cnccn1 [Pyrazinecarboxamide]", "Metric name": "mean", "Test value": 0.9233}
{"Molecule": "CCNC(=O)[C@H]1O[C@@H](n2cnc3c(NCc4ccccc4)ncnc32)[C@H](O)[C@@H]1O", "Metric name": "mean", "Test value": 1.239}
{"Molecule": "Cl.NC1(C(=O)O)CC1", "Metric name": "mean", "Test value": 1.084}
{"Molecule": "O=C(O)C=Cc1c[nH]cn1", "Metric name": "mean", "Test value": 0.9588}
{"Molecule": "O=C(O)CCC(C(=O)O)N1C(=O)c2ccccc2C1=O (stereo not drawn)", "Metric name": "mean", "Test value": 1.263}
{"Molecule": "NC(CCP(=O)(O)O)C(=O)O (racemic) [(±)-2-Amino-4-phosphonobutyric acid]", "Metric name": "mean", "Test value": 1.206}
{"Molecule": "Cl.NOCC(=O)O.NOCC(=O)O", "Metric name": "mean", "Test value": 1.195}
{"Molecule": "CC(C)(C)NCC(O)c1cc(O)cc(O)c1.CC(C)(C)NCC(O)c1cc(O)cc(O)c1.O=S(=O)(O)O (stereo not drawn) [Terbutaline hemisulfate]", "Metric name": "mean", "Test value": 1.161}

----------
# Tgt: UniProt:P0DTD1
# Assay method text: biochemical
# Format: biochemical
# Set-up: unit not given here
# Details: sheet LOPAC_screen_w_protease; primary screen of LOPAC1280 at 5 µM with protease; mean of the two replicates
Metric name: mean

{"Compound": "COC(=O)[C@@H](N)CCCN=C(N)N[N+](=O)[O-].Cl", "Tgt": "UniProt:P0DTD1", "Metric name": "mean", "Test value": 3.268}
{"Compound": "CCNC(=O)[C@H]1O[C@@H](n2cnc3c(N)nc(NCCc4ccc(CCC(=O)O)cc4)nc32)[C@H](O)[C@@H]1O.Cl [CGS-21680 hydrochloride]", "Tgt": "UniProt:P0DTD1", "Metric name": "mean", "Test value": 3.628}
{"Compound": "CNC(=O)[C@H]1O[C@@H](n2cnc3c(N)ncnc32)[C@H](O)[C@@H]1O", "Tgt": "UniProt:P0DTD1", "Metric name": "mean", "Test value": 3.814}
{"Compound": "CCCCCCCCCCCCCCCC(=O)NCC(COP(=O)([O-])OCC[N+](C)(C)C)OCC (racemic)", "Tgt": "UniProt:P0DTD1", "Metric name": "mean", "Test value": 3.428}
{"Compound": "NC1(C(=O)O)CCc2cc(C(=O)O)ccc21 (centres unmarked)", "Tgt": "UniProt:P0DTD1", "Metric name": "mean", "Test value": 3.327}

----------
Below is a list of entries, each paired with its recorded Replicate_1 value.
# Tgt: SARS-CoV-2 3CLpro (Severe acute respiratory syndrome coronavirus 2, UniProt P0DTD1)
# Assay method text: biochemical
# Assay type: biochemical
# Parameters: unit not given here
# Details: sheet LOPAC_screen_w_protease; LOPAC1280 primary screen at 5 µM, with protease; replicate 1
Metric name: Replicate_1

{"Compound": "Nc1ccc(CCN2CCN(c3cccc(C(F)(F)F)c3)CC2)cc1", "Metric name": "Replicate_1", "Test value": -1.095}
{"Compound": "Cl.NCCCCNS(=O)(=O)c1ccc2c(Cl)cccc2c1", "Metric name": "Replicate_1", "Test value": 0.88}
{"Compound": "CC(N)=NCc1cccc(CN)c1.Cl.Cl [1400W dihydrochloride]", "Metric name": "Replicate_1", "Test value": 0.5348}
{"Compound": "COC(=O)C(N)Cc1ccc(Cl)cc1.Cl (racemic)", "Metric name": "Replicate_1", "Test value": 2.428}
{"Compound": "NC(=O)COc1c(F)cc(SCCNS(=O)(=O)c2ccccc2)cc1F", "Metric name": "Replicate_1", "Test value": -1.082}
{"Compound": "Cl.NCCc1ccc(S(=O)(=O)F)cc1", "Metric name": "Replicate_1", "Test value": 1.03}
{"Compound": "COc1ccc2[nH]c3c(c2c1)CCNC3", "Metric name": "Replicate_1", "Test value": 0.4542}
{"Compound": "CC[C@@H]1C(=O)OC[C@@H]1Cc1cncn1C.Cl [(+)-Pilocarpine hydrochloride]", "Metric name": "Replicate_1", "Test value": 2.011}
{"Compound": "COC(=O)[C@H](NC(=O)c1cc(-c2ccccc2)nc2ccccc12)c1ccccc1", "Metric name": "Replicate_1", "Test value": 2.781}
{"Compound": "Br.Br.N=C(N)SCCc1ccc(CCSC(=N)N)cc1 [1,4-PBIT dihydrobromide]", "Metric name": "Replicate_1", "Test value": 0.8182}
{"Compound": "Cl.NCC#Cc1ccccc1 [3-Phenylpropargylamine hydrochloride]", "Metric name": "Replicate_1", "Test value": 1.313}
{"Compound": "N[C@H](C(=O)O)c1cc(O)no1 (racemic) [(±)-Ibotenic acid]", "Metric name": "Replicate_1", "Test value": 1.025}
{"Compound": "O=C(O)/C=C\\C(=O)O.O=C(O)/C=C\\C(=O)O.c1ccc2nc(N3CCNCC3)ccc2c1 [Quipazine dimaleate]", "Metric name": "Replicate_1", "Test value": 0.6596}
{"Compound": "CN1CCN(c2ccc3ccccc3n2)CC1.O=C(O)/C=C\\C(=O)O.O=C(O)/C=C\\C(=O)O [Quipazine, N-methyl-, dimaleate]", "Metric name": "Replicate_1", "Test value": 1.027}
{"Compound": "COC1=C(OC)C(=O)c2ccccc2C1=O", "Metric name": "Replicate_1", "Test value": 0.1505}
{"Compound": "CC(=O)SCC[N+](C)(C)C.[Cl-] [Acetylthiocholine chloride]", "Metric name": "Replicate_1", "Test value": 1.2654}
{"Compound": "CC(=O)[C@H]1CC[C@H]2[C@@H]3CC[C@H]4C[C@H](O)CC[C@]4(C)[C@H]3CC[C@]12C", "Metric name": "Replicate_1", "Test value": 1.221}
{"Compound": "CC1=C(CC(=O)O)c2cc(F)ccc2/C1=C\\c1ccc(S(C)(=O)=O)cc1", "Metric name": "Replicate_1", "Test value": 0.6759}
{"Compound": "COc1ccc(NC(=O)c2ccc(-c3ccc(-c4noc(C)n4)cc3C)cc2)cc1N1CCN(C)CC1.Cl [GR 127935 hydrochloride]", "Metric name": "Replicate_1", "Test value": 0.5978}
